From: patent US11596639B2

system: H929 human cancer cell lines; experiment: Cellular viability / proliferation (Cell TiterGlo, 72 h); assay type: cell-based; conditions: Homo sapiens, NCI-H929, 72 h, read-out: GI50 on cellular proliferation of H929 human cancer cell lines, H929 cells, 72 h, Cell TiterGlo, 10% FBS
Returns: string. Value is Condition met if measured GI50 is below 3000 nM, and Condition not met if it is greater than or equal to it.

compound: COc1cc(C(=O)O)cc(N2CCCn3c(c(CCCOc4cc(C)c(Cl)c(C)c4)c4ccc(Cl)c(-c5c(C)nn(C)c5C)c43)C2=O)c1OCCc1ccccc1 [Example 66]
assigned label: Condition not met
//
compound: Cc1cc(OCCCc2c3n(c4c(-c5c(C)nn(C)c5C)c(Cl)ccc24)[C@H](C)CN(c2nc(C(=O)O)c4ccccn24)C3=O)cc(C)c1Cl [Example 111]
assigned label: Condition met
//
compound: Cc1cc(OCCCc2c3n(c4c(-c5c(C)nn(C)c5C)c(Cl)ccc24)[C@H](C)CN(c2cc(CN4CCOCC4)cc4cc(C(=O)O)n(C)c24)C3=O)cc(C)c1Cl [Example 623]
assigned label: Condition met
//
compound: Cc1cc(OCCCc2c3n(c4c(-c5c(C)ncnc5C)c(Cl)ccc24)[C@H](C)CN(c2cccc4c(C(=O)O)cccc24)C3=O)cc(C)c1Cl [Example 148]
assigned label: Condition met
//
compound: COCCn1c(C(=O)O)cc2cc(C(C)C)cc(N3C[C@@H](C)n4c(c(CCCOc5cc(C)c(Cl)c(C)c5)c5ccc(Cl)c(-c6c(C)nn(C)c6C)c54)C3=O)c21 [Example 364]
assigned label: Condition met
//
compound: Cc1cc(OCCCc2c3n(c4c(-c5c(C)nn(C)c5C)c(Cl)ccc24)[C@H](C)CN(c2cc(CN4CCN(C)C(=O)C4)cc4cc(C(=O)O)n(C)c24)C3=O)cc(C)c1Cl [Example 628]
assigned label: Condition met
